Hello, the source for this data is ChEMBL document CHEMBL5321210, in case you need it.

Molecular target: Cannabinoid receptor 2 (Homo sapiens, UniProt P34972)
Sequence (P34972 whole entry): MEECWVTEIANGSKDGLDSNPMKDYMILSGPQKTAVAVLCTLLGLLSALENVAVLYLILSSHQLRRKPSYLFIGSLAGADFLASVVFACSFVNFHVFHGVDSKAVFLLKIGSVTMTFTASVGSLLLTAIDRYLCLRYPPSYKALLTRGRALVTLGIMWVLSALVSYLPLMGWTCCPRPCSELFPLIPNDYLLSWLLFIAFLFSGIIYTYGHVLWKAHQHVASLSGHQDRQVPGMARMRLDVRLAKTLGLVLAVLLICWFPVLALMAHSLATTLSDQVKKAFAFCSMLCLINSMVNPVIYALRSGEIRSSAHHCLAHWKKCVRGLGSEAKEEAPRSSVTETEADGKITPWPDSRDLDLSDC
Assay: Displacement of [3H]-CP55940 from human CB2 receptor expressed in HEK293 cell membrane assessed as inhibition constant incubated for 90 mins by radioligand competition binding assay
Assay type: cell membranes
Settings: hek293
outcome measure: Ki (nM)

{"columns": ["smiles", "measured on", "unit name", "value observed"],
 "data": [
  ["Cc1c(C(=O)NC23CC4CC(CC(C4)C2)C3)nn(CCCCCO)c1-c1ccccc1", "Cannabinoid receptor 2 (Homo sapiens, UniProt P34972)", "nM", 0.08]
]}

* * *

Target: UniProt P34972
Assay: Displacement of [3H]-CP55940 from human CB2 receptor expressed in HEK293 cell membrane assessed as inhibition constant incubated for 90 mins by radioligand competition binding assay
Assay type: cell membranes
outcome measure: Ki

{"columns": ["smiles", "value observed"],
 "data": [
  ["CCCCCNc1ccc(-c2cccnc2)cc1C(=O)NC12CC3CC(CC(C3)C1)C2", "330 nM"],
  ["CCCCCCNc1ccc(-c2ccccc2)cc1C(=O)NC12CC3CC(CC(C3)C1)C2", "209 nM"],
  ["CCCCCCCNc1ccccc1C(=O)NC12CC3CC(CC(C3)C1)C2", "923 nM"],
  ["CCCCCNc1ccc(-c2cccs2)cc1C(=O)NC12CC3CC(CC(C3)C1)C2", "2600 nM"],
  ["CCCCCNc1ccc(-c2ccccc2)cc1C(=O)NC12CC3CC(CC(C3)C1)C2", "47.8 nM"],
  ["CCCCCCNc1ccc(-c2cccs2)cc1C(=O)NC12CC3CC(CC(C3)C1)C2", "465 nM"],
  ["CCCCCNc1ccc(-c2ccc(C)cc2)cc1C(=O)NC12CC3CC(CC(C3)C1)C2", "129 nM"],
  ["CCCCCNc1ccc(-c2cccc(F)c2)cc1C(=O)NC12CC3CC(CC(C3)C1)C2", "71 nM"],
  ["COc1ccc2c(c1)c(CCN1CCOCC1)c(C)n2C(=O)c1cccc(Cl)c1Cl", "6.9 nM"],
  ["CCCCCCCNc1ccc(-c2ccccc2)cc1C(=O)NC12CC3CC(CC(C3)C1)C2", "1180 nM"],
  ["CCCCCCNc1ccccc1C(=O)NC12CC3CC(CC(C3)C1)C2", "485 nM"],
  ["CCCCCCCNc1ccc(-c2cccs2)cc1C(=O)NC12CC3CC(CC(C3)C1)C2", "160 nM"],
  ["CCCCCNc1ccc(-c2ccc(OC)cc2)cc1C(=O)NC12CC3CC(CC(C3)C1)C2", "148 nM"],
  ["CCCCCNc1ccc(Br)cc1C(=O)NC12CC3CC(CC(C3)C1)C2", "456 nM"],
  ["CCCCCNc1ccc(-c2ccc(F)cc2)cc1C(=O)NC12CC3CC(CC(C3)C1)C2", "89.5 nM"],
  ["CCCCCCNc1ccc(-c2cccnc2)cc1C(=O)NC12CC3CC(CC(C3)C1)C2", "6500 nM"],
  ["CCCCCNc1ccccc1C(=O)NC12CC3CC(CC(C3)C1)C2", "55.7 nM"]
]}
